# assayComment: Phase I study CXR1002-001: plasma pharmacokinetics (LC-MS/MS)
# Format: in vivo, human
# conditionsUsed: human, plasma, oral, 600 mg, Patient 021, 600 mg, person, plasma, 170 hr; read-out: Concentration
propertyLabel: concentration at 170 h (µM)
Numbers only; they are read as µM.

Measured concentration at 170 h, `O=C(O)C(F)(F)C(F)(F)C(F)(F)C(F)(F)C(F)(F)C(F)(F)C(F)(F)F` : 504

* * *

# assayComment: Phase I study CXR1002-001: plasma pharmacokinetics (LC-MS/MS)
# Assay type: in vivo, human
# conditionsUsed: human, plasma, oral, 750 mg, Patient 026, 750 mg, person, plasma, 844 hr; read-out: Concentration
propertyLabel: concentration at 844 h (µM)
Numbers only; they are read as µM.

Measured concentration at 844 h, `O=C(O)C(F)(F)C(F)(F)C(F)(F)C(F)(F)C(F)(F)C(F)(F)C(F)(F)F` : 822

* * *

# assayComment: Phase I study CXR1002-001: plasma pharmacokinetics (LC-MS/MS)
# Type: in vivo, human
# conditionsUsed: human, plasma, oral, 450 mg, Patient 015 Dose 450 mg; 340 hr; read-out: Concentration
propertyLabel: concentration at 340 h (µM)
Numbers only; they are read as µM.

Measured concentration at 340 h, O=C(O)C(F)(F)C(F)(F)C(F)(F)C(F)(F)C(F)(F)C(F)(F)C(F)(F)F [CXR1002] : 424

* * *

# assayComment: Phase I study CXR1002-001: plasma pharmacokinetics (LC-MS/MS)
# Type: in vivo, human
# conditionsUsed: human, plasma, oral, 750 mg, Patient 026, 750 mg, person, plasma, 4 hr; read-out: Concentration
propertyLabel: concentration at 4 h
Output should be the measured figure followed by the unit it is expressed in.

Measured concentration at 4 h, `O=C(O)C(F)(F)C(F)(F)C(F)(F)C(F)(F)C(F)(F)C(F)(F)C(F)(F)F` : 149 µM

* * *

# assayComment: Phase I study CXR1002-001: plasma pharmacokinetics (LC-MS/MS)
# Assay type: in vivo, human
# conditionsUsed: human, plasma, po, 1200 mg, Patient 037, 1200 mg weekly oral dose, Time 504 hr (Day 22); read-out: Concentration (plasma level)
propertyLabel: concentration at 504 h (µM)
Numbers only; they are read as µM.

Measured concentration at 504 h, `O=C(O)C(F)(F)C(F)(F)C(F)(F)C(F)(F)C(F)(F)C(F)(F)C(F)(F)F` : 1100

* * *

# assayComment: Phase I study CXR1002-001: plasma pharmacokinetics (LC-MS/MS)
# Assay type: in vivo, human
# conditionsUsed: human, plasma, oral, 1200 mg, Patient 034, 1200 mg, person, plasma, 508 hr; read-out: Concentration
propertyLabel: concentration at 508 hr (µM)
Numbers only; they are read as µM.

Measured concentration at 508 hr, `O=C(O)C(F)(F)C(F)(F)C(F)(F)C(F)(F)C(F)(F)C(F)(F)C(F)(F)F` : 1440

* * *

# assayComment: Phase I study CXR1002-001: plasma pharmacokinetics (LC-MS/MS)
# Format: in vivo, human
# conditionsUsed: human, plasma, oral, 100 mg, Patient 006 Dose 100 mg; 696 hr (Day 30); read-out: Concentration
propertyLabel: concentration at 696 h (µM)
Numbers only; they are read as µM.

Measured concentration at 696 h, `O=C(O)C(F)(F)C(F)(F)C(F)(F)C(F)(F)C(F)(F)C(F)(F)C(F)(F)F` : 89.5
